Molecular target: T1, GST-β5cyto (GST fusion protein of the β5 integrin cytoplasmic domain) (UniProt P18084 743-799)
T1 construct: domain: cytoplasmic domain; Recombinant GST fusion coated on microtiter wells; also called β5-GST; β5 cytoplasmic domain fusion protein; not shown: glutathione S-transferase (GST) fusion partner
T1 sequence (looked up): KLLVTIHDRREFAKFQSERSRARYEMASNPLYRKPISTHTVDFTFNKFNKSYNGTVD
Assay: phage binding, colonies from β5-GST wells / GST wells
Ends that are not written are not given here.
Could you please report measured β5/GST Ratio for the items listed next?

Please look at this binder and report its β5/GST Ratio: CWDQNYLDDC (whole phage tested) [phage displaying CWDQNYLDDC (SEQ ID NO:109)]
1.5 ratio

Please look at this binder and report its β5/GST Ratio: DEEGYYMMR (whole phage tested) [phage displaying DEEGYYMMR (SEQ ID NO:110)]
11.5 ratio

Please look at this binder and report its β5/GST Ratio: CEPYWDGWFC (cysteine pairing not given here; also: displayed on phage, whole phage tested) [phage displaying CEPYWDGWFC (SEQ ID NO:106)]
3.1 ratio

Please look at this binder and report its β5/GST Ratio: CKEDGWLMTC (whole phage tested) [phage displaying CKEDGWLMTC (SEQ ID NO:107)]
2.3 ratio

Please look at this binder and report its β5/GST Ratio: KQFSYRYLL (whole phage tested) [phage displaying KQFSYRYLL (SEQ ID NO:111)]
4.5 ratio

Please look at this binder and report its β5/GST Ratio: SDWYYPWSW (whole phage tested; Selected on β5) [phage displaying SDWYYPWSW (SEQ ID NO:113)]
2.4 ratio

Please look at this binder and report its β5/GST Ratio: CYIWPDSGLC (cysteine pairing not given here; also: displayed on phage, whole phage tested) [phage displaying CYIWPDSGLC (SEQ ID NO:105)]
5.2 ratio

Please look at this binder and report its β5/GST Ratio: VVISYSMPD (whole phage tested) [phage displaying VVISYSMPD (SEQ ID NO:112)]
3.8 ratio
